# target: Voltage-gated inwardly rectifying potassium channel KCNH2 (Homo sapiens, UniProt Q12809)
# Sequence (Q12809 whole entry): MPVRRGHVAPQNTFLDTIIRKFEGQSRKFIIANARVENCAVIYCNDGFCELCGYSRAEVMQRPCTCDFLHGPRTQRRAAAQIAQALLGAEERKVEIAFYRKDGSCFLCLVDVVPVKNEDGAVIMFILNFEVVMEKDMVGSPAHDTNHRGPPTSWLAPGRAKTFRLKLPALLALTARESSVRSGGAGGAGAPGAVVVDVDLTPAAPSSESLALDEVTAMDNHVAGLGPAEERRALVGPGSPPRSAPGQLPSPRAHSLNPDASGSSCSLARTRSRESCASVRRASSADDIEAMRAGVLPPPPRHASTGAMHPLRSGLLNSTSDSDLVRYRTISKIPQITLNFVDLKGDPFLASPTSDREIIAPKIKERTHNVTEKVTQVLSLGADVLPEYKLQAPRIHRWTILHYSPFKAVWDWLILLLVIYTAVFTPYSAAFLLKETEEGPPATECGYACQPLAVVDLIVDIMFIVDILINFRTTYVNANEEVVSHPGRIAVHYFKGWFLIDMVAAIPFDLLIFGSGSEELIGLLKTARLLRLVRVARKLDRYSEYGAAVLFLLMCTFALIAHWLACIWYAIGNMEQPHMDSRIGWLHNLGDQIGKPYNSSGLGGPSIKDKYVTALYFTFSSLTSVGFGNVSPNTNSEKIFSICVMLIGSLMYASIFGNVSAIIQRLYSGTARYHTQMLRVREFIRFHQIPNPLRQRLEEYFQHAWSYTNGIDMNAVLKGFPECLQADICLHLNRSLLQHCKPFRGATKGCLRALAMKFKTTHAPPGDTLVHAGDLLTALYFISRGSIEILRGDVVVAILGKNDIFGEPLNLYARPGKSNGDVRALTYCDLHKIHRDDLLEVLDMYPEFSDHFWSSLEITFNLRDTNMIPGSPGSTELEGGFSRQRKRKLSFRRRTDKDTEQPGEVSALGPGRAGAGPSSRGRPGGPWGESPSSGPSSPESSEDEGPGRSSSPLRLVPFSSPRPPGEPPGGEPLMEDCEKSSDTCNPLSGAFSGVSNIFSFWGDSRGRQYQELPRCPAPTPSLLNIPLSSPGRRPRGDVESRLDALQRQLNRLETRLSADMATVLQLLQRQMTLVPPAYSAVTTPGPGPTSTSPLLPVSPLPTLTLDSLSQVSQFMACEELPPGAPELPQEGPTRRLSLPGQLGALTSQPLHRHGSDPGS
experimental-endpoint: IC50

Req: Name the recorded IC50 for "C[C@@H](c1ccc(-c2ccc(O)nc2)cc1)[C@H](N)C(=O)N1CC[C@H](F)C1.O=C(O)C(F)(F)F" .
Resp: 8.3 µM

###

# assay-explanation: Bioavailability in rat at 1 mg/kg, iv or 2 mg/kg, po
# Assay type: ADME, organism-based
# conditions-used: in vivo
experimental-endpoint: bioavailability (%)
Numbers only, in %.

Worked examples follow.
substance-smiles: C[C@@H](c1ccc(-c2cn(C)c(=O)cc2CO)cc1)[C@H](N)C(=O)N1CC[C@H](F)C1.O=C(O)C(F)(F)F
experimental-result: 3
--
substance-smiles: C[C@@H](c1ccc(-c2ccc(=O)n(C)c2F)cc1)[C@H](N)C(=O)N1CC[C@H](F)C1.O=C(O)C(F)(F)F
experimental-result: 61
--
substance-smiles: C[C@@H](c1ccc(-c2ccc(=O)n(C)c2)cc1)[C@H](N)C(=O)N1CC[C@H](F)C1.O=C(O)C(F)(F)F
experimental-result: 34

Let us move to another entry and its bioavailability.
Req: Name the recorded bioavailability for "C[C@@H](c1ccc(-c2ccc(O)nc2)cc1)[C@H](N)C(=O)N1CC[C@H](F)C1.O=C(O)C(F)(F)F" .
Resp: 10
